The entries below are paired with their reported Efficacy (%).
- experimental_target: CIB1 and αIIb interaction (CIB1-GST : F-αIIb peptide) (Homo sapiens)
- Construct: made in house; host or cells: BL-21 plus RIL cells (E. coli)
- Sequence (Q99828 1-191): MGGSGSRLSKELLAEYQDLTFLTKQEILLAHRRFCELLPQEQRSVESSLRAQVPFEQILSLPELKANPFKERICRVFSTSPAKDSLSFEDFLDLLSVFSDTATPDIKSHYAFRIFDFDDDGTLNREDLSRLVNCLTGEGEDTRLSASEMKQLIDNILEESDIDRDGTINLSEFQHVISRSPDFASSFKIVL
- method_notes: FP assay, 1536-well qHTS format (primary and confirmatory screen)
- Type: binding
- test_context: qHTS primary screen hits, Table S2; negative = inhibition

{"mol_smiles": "CC(=O)N[C@@H](CC(=O)O)C(=O)N[C@@H](CCC(=O)O)C(=O)N[C@H](C(=O)N[C@@H](CC(=O)O)C(=O)Nc1ccc2c(C)cc(=O)oc2c1)C(C)C", "Efficacy (%)": -37}
{"mol_smiles": "C[n+]1c2cc(N)ccc2cc2ccc(N)cc21", "Efficacy (%)": -101}
{"mol_smiles": "CCOc1cc(C(C)(C)C)ccc1C1=N[C@@](C)(c2ccc(Cl)cc2)[C@@](C)(c2ccc(Cl)cc2)N1C(=O)N1CCN(CC(=O)N2CCOCC2)CC1", "Efficacy (%)": -29}
{"mol_smiles": "COc1cc(/C=C2/N=C(c3ccccc3)OC2=O)c(F)cc1OCc1ccccc1", "Efficacy (%)": -91}
{"mol_smiles": "O=C(O)C(F)(F)F.O=c1c2ccccc2nc2sc(NS(=O)(=O)c3ccc4c(c3)CCC4)nn12", "Efficacy (%)": -32}
{"mol_smiles": "Cc1cccc(S(=O)(=O)Nc2cnccc2C(=O)Nc2nc(-c3ccccc3)cs2)c1.O=C(O)C(F)(F)F", "Efficacy (%)": -43}
{"mol_smiles": "CNC[C@H](O)c1ccc(O)c(O)c1", "Efficacy (%)": -32}
{"mol_smiles": "NS(=O)(=O)c1ccc(Cc2cn(-c3nc(C(=O)O)cs3)c3ncccc23)cc1", "Efficacy (%)": -41}
